The measured values listed here are drawn from ChEMBL document CHEMBL1141022.

- systemUnderTest: Cannabinoid receptor 1 (Homo sapiens, UniProt P21554)
- Sequence (P21554 whole entry): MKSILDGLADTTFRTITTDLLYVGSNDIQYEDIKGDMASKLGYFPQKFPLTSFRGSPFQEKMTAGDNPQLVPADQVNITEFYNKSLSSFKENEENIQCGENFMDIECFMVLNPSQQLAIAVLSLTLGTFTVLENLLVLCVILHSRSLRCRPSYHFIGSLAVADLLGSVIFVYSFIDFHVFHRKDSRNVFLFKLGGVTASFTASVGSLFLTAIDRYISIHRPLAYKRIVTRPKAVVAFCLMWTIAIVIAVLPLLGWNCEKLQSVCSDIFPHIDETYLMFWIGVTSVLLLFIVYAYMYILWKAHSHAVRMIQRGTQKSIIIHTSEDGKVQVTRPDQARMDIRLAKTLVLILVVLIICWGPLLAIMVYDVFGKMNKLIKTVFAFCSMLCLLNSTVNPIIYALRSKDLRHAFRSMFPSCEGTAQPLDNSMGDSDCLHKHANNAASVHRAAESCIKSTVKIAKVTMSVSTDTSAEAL
- testDescription: Antagonist activity at human CB1 receptor expressed in HEK293 cells assessed as inhibition of Eu-GTP binding
measurementType: pEC50
Numbers only, as −log10 of the molar value.

- molecularString: "O=C(Cn1nc(-c2ccc(Cl)cc2Cl)c(-c2ccc(Cl)cc2Cl)n1)NCc1ccc(Cl)cc1"
  reading: 7.75
- molecularString: "O=C(Cn1nc(-c2ccc(Cl)cc2)c(-c2ccc(Cl)cc2Cl)n1)NCc1ccccc1F"
  reading: 6.59
- molecularString: "COc1ccc(CNC(=O)Cn2nc(-c3ccc(Cl)cc3Cl)c(-c3ccc(Cl)cc3Cl)n2)cc1"
  reading: 7.25

Batch of 2 compounds: report pEC50 for each.
1. O=C(Cn1nc(-c2ccc(Cl)cc2Cl)c(-c2ccc(Cl)cc2Cl)n1)NCc1cccc(F)c1
2. O=C(Cn1nc(-c2ccc(Cl)cc2Cl)c(-c2ccc(Cl)cc2Cl)n1)NC1CCCCC1

7.45
6.69
